biological target: T1, canine NGF tagged at the C-terminus with the Flag tag (canine, UniProt A0A8I3PYI3 122-241); assay: SPR off-rate screen, Fab-SASA on BSA chip
T1 construct: mature; Expressed with baculovirus technology; also called feline NGF (processed form identical)
T1 sequence (A0A8I3PYI3 entry or part of it): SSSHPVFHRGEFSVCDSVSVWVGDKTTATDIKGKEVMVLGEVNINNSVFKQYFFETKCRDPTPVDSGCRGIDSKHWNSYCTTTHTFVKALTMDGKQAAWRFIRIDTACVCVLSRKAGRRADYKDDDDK

{"columns": ["binder", "Ratio WT-kd/clone-kd"],
 "data": [
  ["felinized clone 101 Fab-SASA variant S62D (VH) (Fab, V domains shown, not shown: small tags and cut ends) VH: DVQLVESGGDLVKPGGSLRLTCVASGLSLTSSSMSWVRQAPGKGLQWVSTIYSNGGTYYTDDVKGRFTISKDNAENTLYLQMNNLKTEDTATYYCASIYYYDADYLHWYFDFWGQGALVTVSS VL: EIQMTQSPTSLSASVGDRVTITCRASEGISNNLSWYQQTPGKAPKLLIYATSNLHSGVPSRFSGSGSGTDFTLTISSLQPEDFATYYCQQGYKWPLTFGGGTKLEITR", 1.68],
  ["felinized clone 101 Fab-SASA variant H55M (VL) (Fab, V domains shown, not shown: small tags and cut ends) VH: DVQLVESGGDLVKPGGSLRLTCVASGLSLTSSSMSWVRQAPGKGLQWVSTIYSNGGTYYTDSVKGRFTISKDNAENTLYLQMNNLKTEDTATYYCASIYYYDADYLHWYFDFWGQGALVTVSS VL: EIQMTQSPTSLSASVGDRVTITCRASEGISNNLSWYQQTPGKAPKLLIYATSNLMSGVPSRFSGSGSGTDFTLTISSLQPEDFATYYCQQGYKWPLTFGGGTKLEITR", 3.02],
  ["felinized clone 101 Fab-SASA variant D104E (VH) (Fab, V domains shown, not shown: small tags and cut ends) VH: DVQLVESGGDLVKPGGSLRLTCVASGLSLTSSSMSWVRQAPGKGLQWVSTIYSNGGTYYTDSVKGRFTISKDNAENTLYLQMNNLKTEDTATYYCASIYYYDAEYLHWYFDFWGQGALVTVSS VL: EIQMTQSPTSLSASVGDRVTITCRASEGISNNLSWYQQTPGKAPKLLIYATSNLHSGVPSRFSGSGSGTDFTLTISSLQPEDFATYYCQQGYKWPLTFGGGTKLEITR", 2.21],
  ["felinized clone 101 Fab-SASA variant T30N (VH) (Fab, V domains shown, not shown: small tags and cut ends) VH: DVQLVESGGDLVKPGGSLRLTCVASGLSLNSSSMSWVRQAPGKGLQWVSTIYSNGGTYYTDSVKGRFTISKDNAENTLYLQMNNLKTEDTATYYCASIYYYDADYLHWYFDFWGQGALVTVSS VL: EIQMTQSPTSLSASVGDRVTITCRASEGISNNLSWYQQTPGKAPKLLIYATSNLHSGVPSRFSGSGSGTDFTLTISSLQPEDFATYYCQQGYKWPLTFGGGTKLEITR", 1.34],
  ["felinized clone 101 Fab-SASA variant K64E (VH) (Fab, V domains shown, not shown: small tags and cut ends) VH: DVQLVESGGDLVKPGGSLRLTCVASGLSLTSSSMSWVRQAPGKGLQWVSTIYSNGGTYYTDSVEGRFTISKDNAENTLYLQMNNLKTEDTATYYCASIYYYDADYLHWYFDFWGQGALVTVSS VL: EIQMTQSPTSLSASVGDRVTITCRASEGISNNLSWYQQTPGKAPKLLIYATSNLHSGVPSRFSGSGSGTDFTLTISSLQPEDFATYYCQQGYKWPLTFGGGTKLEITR", 1.98],
  ["felinized clone 101 Fab-SASA variant G55Y (VH) (Fab, V domains shown, not shown: small tags and cut ends) VH: DVQLVESGGDLVKPGGSLRLTCVASGLSLTSSSMSWVRQAPGKGLQWVSTIYSNYGTYYTDSVKGRFTISKDNAENTLYLQMNNLKTEDTATYYCASIYYYDADYLHWYFDFWGQGALVTVSS VL: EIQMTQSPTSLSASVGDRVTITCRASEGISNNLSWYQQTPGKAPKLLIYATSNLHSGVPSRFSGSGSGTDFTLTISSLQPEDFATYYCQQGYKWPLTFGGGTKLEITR", 2.25],
  ["felinized clone 101 Fab-SASA variant H55L (VL) (Fab, V domains shown, not shown: small tags and cut ends) VH: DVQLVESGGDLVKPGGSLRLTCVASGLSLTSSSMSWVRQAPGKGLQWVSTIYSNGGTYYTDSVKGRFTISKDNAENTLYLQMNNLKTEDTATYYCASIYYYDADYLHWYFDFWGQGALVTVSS VL: EIQMTQSPTSLSASVGDRVTITCRASEGISNNLSWYQQTPGKAPKLLIYATSNLLSGVPSRFSGSGSGTDFTLTISSLQPEDFATYYCQQGYKWPLTFGGGTKLEITR", 2.26],
  ["felinized clone 101 Fab-SASA variant N53H (VL) (Fab, V domains shown, not shown: small tags and cut ends) VH: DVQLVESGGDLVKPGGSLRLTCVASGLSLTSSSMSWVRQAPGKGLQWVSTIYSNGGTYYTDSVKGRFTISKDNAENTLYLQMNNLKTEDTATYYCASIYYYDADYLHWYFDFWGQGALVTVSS VL: EIQMTQSPTSLSASVGDRVTITCRASEGISNNLSWYQQTPGKAPKLLIYATSHLHSGVPSRFSGSGSGTDFTLTISSLQPEDFATYYCQQGYKWPLTFGGGTKLEITR", 1.5],
  ["felinized clone 101 Fab-SASA variant L54H (VL) (Fab, V domains shown, not shown: small tags and cut ends) VH: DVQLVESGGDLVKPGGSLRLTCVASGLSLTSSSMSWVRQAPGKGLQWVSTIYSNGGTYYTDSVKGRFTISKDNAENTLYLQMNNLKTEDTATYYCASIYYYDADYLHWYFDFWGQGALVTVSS VL: EIQMTQSPTSLSASVGDRVTITCRASEGISNNLSWYQQTPGKAPKLLIYATSNHHSGVPSRFSGSGSGTDFTLTISSLQPEDFATYYCQQGYKWPLTFGGGTKLEITR", 1.68],
  ["felinized clone 101 Fab-SASA variant S56D (VL) (Fab, V domains shown, not shown: small tags and cut ends) VH: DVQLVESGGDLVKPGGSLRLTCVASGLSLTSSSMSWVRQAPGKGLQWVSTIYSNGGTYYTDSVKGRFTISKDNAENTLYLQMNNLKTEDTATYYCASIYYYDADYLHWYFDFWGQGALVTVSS VL: EIQMTQSPTSLSASVGDRVTITCRASEGISNNLSWYQQTPGKAPKLLIYATSNLHDGVPSRFSGSGSGTDFTLTISSLQPEDFATYYCQQGYKWPLTFGGGTKLEITR", 1.25]
]}
